# testProtocol: Mouse brain penetration pharmacokinetics study (plasma and brain)
# Assay type: in vivo, ICR male mice
# cond: male, ICR, mouse, plasma, po, 30 mg/kg, ICR male mice, PO(30mg/kg), sampling time 8 h, individual animals; read-out: Plasma concentration
readout: concentration at 8 h (ng/mL)
Respond with the bare value in ng/mL.

[ask] May I ask what concentration at 8 h has been recorded for `CN(C(=O)c1ccc2nc(N)c3cncn3c2c1)[C@@H]1COc2cc(C(F)(F)F)ccc21` ?
[reply] 6370

====

# testProtocol: Mouse brain penetration pharmacokinetics study (plasma and brain)
# Type: in vivo, ICR male mice
# cond: male, ICR, mouse, brain, po, 100 mg/kg, ICR male mice, PO(100mg/kg), sampling time 8 h, individual animals; read-out: Brain concentration
readout: concentration at 8 h

[ask] May I ask what concentration at 8 h has been recorded for `CN(C(=O)c1ccc2nc(N)c3cncn3c2c1)[C@@H]1COc2cc(C(F)(F)F)ccc21` ?
[reply] 2460 ng/g

Attribution: patent EP4775208A1
